# System: RARg:RXRa (NR concentration 270 nM, RXRa partner concentration 90 nM)
# assay: PBM binding z-score (relative to random genomic background probes); higher = stronger binding; sequences stand for … in GC…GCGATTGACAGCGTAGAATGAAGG
readout.name: PBM binding z-score
Answer with a number only.

Looking up "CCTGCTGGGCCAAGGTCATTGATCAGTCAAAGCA" , I found its PBM binding z-score recorded as 3.79

For reference, reported PBM binding z-score for "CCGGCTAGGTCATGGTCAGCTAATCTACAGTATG" stands at 4.11

The recorded PBM binding z-score for "AGAATGAGGTTATGAAGATCAGGGAATTGCGGTC" is 1.45

Item: "ATAGCAAGGTGATCGTGAGGTCGTTGATACTAAC" | PBM binding z-score: 2.12

For this sequence ( "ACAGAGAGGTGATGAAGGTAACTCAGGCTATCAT" ), measured PBM binding z-score is 0.531

Record summary for "CGTCCAAGGTCAATGCTAGGTCAGTGTAAGCATT" : reported PBM binding z-score = 7.55

***
Lookup result for "CAAACTAGGTAAAGAGGTCAAAGTCCGCTTCCCG" ; measured PBM binding z-score: 5.02

Entry "CTACCAAGGTGGACAAGGTCGTTGATTACTATTC" ; PBM binding z-score = 0.429

Entry under test: "CCTCCTGGGCCATCAGGTCATTGATATCAACGTT" . Its PBM binding z-score was 1.98

Query "CCTCGGAGGACGGAAGGTCAGAGCTGTCCGCTTT" yields PBM binding z-score of 2.49

Lab book: PBM binding z-score of "CCTCCAAGGTCAGAGAGGTCAGTGAATGCCGAGT" noted as 6.2

PBM binding z-score reported for this sequence "CCAGCTAGGTCATGGTCAGCTAATCTACAGTATG" : 3.81
